- MEASUREMENT PARAMETERS: basic group
Parameter: pKa. Scope: all listed entries.
Could you keep your reply to the number by itself?

Query block: What value of pKa has been reported for the following compound? `Oc1cccc2ncccc12`
Result block: 5.2

Query block: State the recorded pKa for this entry: `CSc1nc(N)n[nH]1`
Result block: 3.27

Query block: # lookup: pKa of C=CCC(C)(CN(CC)CC)OC(=O)CC(C)C (centres undefined)
Result block: 8.1

###

- MEASUREMENT PARAMETERS: basic group
MEASUREMENT TYPE: pKa
# respond with the number and nothing more

A selection of reference data follows.
In [3]: df
Out[3]:
                              mol  measured
0  [NH3+]c1cccc(-c2nc3ccccc3s2)c1      0.07
1             N[C@@H]1CCC[C@@H]1O       9.7

Query block: Which measured pKa value corresponds to `COc1cccc(CN)c1O` ?
Result block: 8.7

Query block: Entry `CCN(CC)CCOCCN(C)C` : reported pKa = ?
Result block: 10.2

Query block: Looking for the measured pKa of `COCCCN` , can you help?
Result block: 9.92

Query block: Please give the measured pKa for this compound: `NNC(=O)c1ccc(N)cc1`
Result block: 3.56

Query block: Give the measured pKa of `C[n+]1ccc([O-])nc1[O-]` .
Result block: 9.73

Query block: pKa for `Nc1nc([O-])nc2nc[nH]c12` ?
Result block: 8.99

Query block: Reported pKa for `c1ccc(NC2CCCCC2)cc1` : what is it?
Result block: 5.6

Query block: Which pKa value belongs to `COC(=O)[C@@H]1CSCN1` ?
Result block: 3.92
